Test system: ATP;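 further: ATP exposure 15 min at 22 °C before imaging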
measurement notes: switch fluorescence ratio, 500 uM ATP over buffer (Cy3 cluster intensity, sum of 5 cycles each) (fold (ratio)); higher = stronger signal-on switching upon ATP binding; sequences stand for … in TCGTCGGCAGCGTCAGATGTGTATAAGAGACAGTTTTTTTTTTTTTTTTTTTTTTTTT…TC
run parameters: aptamer strand: ATP DNA aptamer (quencher-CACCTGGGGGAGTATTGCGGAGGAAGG + anchor), 100 nM annealed; ATP concentration: 500 uM
switch fluorescence ratio values, listed per item
assay metric: switch fluorescence ratio

>>> observed_value("GTTGGTGAGT")
0.989
>>> observed_value("GAATCAGGG")
0.972
>>> observed_value("GGGCAAGCAT")
0.999
>>> observed_value("AGTGAGGTGC")
1.02
>>> observed_value("GGGAGGAAGG")
0.974
>>> observed_value("ATGGTTGGTA")
0.995
>>> observed_value("CGGTGCGGTG")
0.981
>>> observed_value("TGACGACTGT")
1
>>> observed_value("GGATATTGCT")
0.949
>>> observed_value("GGGGGACGGC")
0.985
>>> observed_value("GGGTATCTCG")
0.994
>>> observed_value("TTTATGTCTC")
0.992
>>> observed_value("TCGTATGTTT")
0.985
>>> observed_value("GGTGTTGTTC")
1.01
>>> observed_value("CTGTAAAGAG")
0.99
>>> observed_value("GCGTCAAGAG")
1.24
>>> observed_value("GTTTGGGGCG")
1.01
>>> observed_value("AAGGAGGCAG")
1.03
>>> observed_value("CAAAAAATTA")
1.01
>>> observed_value("TTCGCCTAAG")
0.966
>>> observed_value("TTGCACGTAT")
1.08
>>> observed_value("AACGCACGTT")
1.28
>>> observed_value("GAGGTAATGT")
1.04
>>> observed_value("GCCAATGGTT")
1.08
>>> observed_value("AAGAGGATG")
0.977
>>> observed_value("CGGCTTGGGG")
1
>>> observed_value("TTTTGATCTT")
0.991
>>> observed_value("TGGGTAAACA")
1.02
>>> observed_value("TAGGCAGATG")
1.01
>>> observed_value("TTCAAATGCT")
0.998
>>> observed_value("AGAATGTTTT")
0.989
>>> observed_value("TCAAACATTT")
1.02
>>> observed_value("CCTCGCTGAG")
3.48
>>> observed_value("GATAGAGGTG")
1.32
>>> observed_value("TTCCCGAAGT")
1.02
>>> observed_value("ATGTTGGAAT")
1.04
>>> observed_value("GGTTGCGTCT")
0.961
>>> observed_value("TACGTGTAGC")
1.01
>>> observed_value("ATACTGGACT")
1.2
>>> observed_value("CGGACTGGGC")
0.959
>>> observed_value("GGGCAAGAAG")
1.02
>>> observed_value("ATACATTGTC")
0.978
>>> observed_value("TTACTTGGCC")
0.982
>>> observed_value("AATCAGAGCG")
1.02
>>> observed_value("AAGGGAAAGG")
1
>>> observed_value("CATATCACAT")
1.02
>>> observed_value("ATTTGGGCCA")
1.02
>>> observed_value("AACGGGTCTG")
1.01
>>> observed_value("TGGTTCGGGT")
1.03
>>> observed_value("AATTTTTCAG")
0.985
>>> observed_value("GTTGTTTAAT")
1.01
>>> observed_value("GGCTTAAGTA")
0.983
>>> observed_value("ATATGGTATT")
0.99
>>> observed_value("GGCGCATAGG")
1.11
>>> observed_value("TGTGAGGGGA")
1.01
>>> observed_value("CCATCTCTGG")
0.979
>>> observed_value("TCGCGCCGGT")
1.01
>>> observed_value("CACTAAGTGG")
1.02
>>> observed_value("TTTTTGATGA")
1.02
>>> observed_value("GGTTGTAGTT")
0.963
>>> observed_value("CGGGGGGATA")
1.07
>>> observed_value("AGGGGTACGT")
0.982
>>> observed_value("AACGGGGGCT")
0.978
>>> observed_value("ATGAGCATGG")
1.1
>>> observed_value("AATCTTCTTA")
1
>>> observed_value("AAGCGTGTGG")
1
>>> observed_value("TGATGCAGAA")
1.04
>>> observed_value("GTTGTGTGTA")
0.992
>>> observed_value("TTCCGAGATA")
1.12
>>> observed_value("ATCGATCTGG")
1
>>> observed_value("GGGGGGGTGA")
1.01
>>> observed_value("TTCTCAAAGA")
1.07
>>> observed_value("GGGCTAGGGT")
1.02
>>> observed_value("CAGAATGTGG")
0.996
>>> observed_value("TGATATGTGT")
0.973
>>> observed_value("AGGTTCTCGG")
0.967
